system: T1, recombinant canine Nerve Growth Factor (Canis lupus familiaris NGF) (canine (Canis lupus familiaris), UniProt Q29074 110-229 (pig entry), limits assumed)
T1 construct: also called canine NGF; Dog NGF
T1 chain: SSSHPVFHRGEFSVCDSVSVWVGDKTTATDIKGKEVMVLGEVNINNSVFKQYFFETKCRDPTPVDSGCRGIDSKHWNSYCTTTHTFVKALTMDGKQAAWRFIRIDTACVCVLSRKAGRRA
experiment description: SPR, 1:1 binding fit, canine NGF
measure: kon (M⁻¹ s⁻¹)
Report as a plain number; the unit M⁻¹ s⁻¹ is understood.

Record excerpt, results attached:
Query SSM-36 (LC SSM135LCR53S, HC SSM135HCG31E) (antibody, V domains shown, Both chains are built on the LTM135 template (HC G103A, LC H32N)) VH: EVQLVESGGDLARPGGSLKLSCVVSGFSLIEYDINWVRQAPGKGLQWVTMIWGDGTTDYNSALKSRFTVSRDNAMNTVYLQMNSLRVEDTAVYYCARGGYYYATSYYFDYWGQGTLVTVSS VL: DIVMTQTPLSLSVSPGETASISCRASQDISNNLNWFRQKPGQSPQRLIYYISSFHSGVPDRFSGSGSGTDFTLRISRVEADDTGVYYCQQSKTLPYTFGAGTKLEIK yields kon of 8200

// recorded kon for LTM135 (HC G103A, LC H32N) (antibody, V domains shown, Point mutant of canE3M65 as full IgG) VH: EVQLVESGGDLARPGGSLKLSCVVSGFSLIGYDINWVRQAPGKGLQWVTMIWGDGTTDYNSALKSRFTVSRDNAMNTVYLQMNSLRVEDTAVYYCARGGYYYATSYYFDYWGQGTLVTVSS VL: DIVMTQTPLSLSVSPGETASISCRASQDISNNLNWFRQKPGQSPQRLIYYISRFHSGVPDRFSGSGSGTDFTLRISRVEADDTGVYYCQQSKTLPYTFGAGTKLEIK : 25100

binder SSM-2 (LC E3M, HC SSMwtHCG31Q) (antibody, V domains shown, IgG expressed in HEK293; constant regions are not restated) VH: EVQLVESGGDLARPGGSLKLSCVVSGFSLIQYDINWVRQAPGKGLQWVTMIWGDGTTDYNSALKSRFTVSRDNAMNTVYLQMNSLRVEDTAVYYCARGGYYYGTSYYFDYWGQGTLVTVSS VL: DIVMTQTPLSLSVSPGETASISCRASQDISNHLNWFRQKPGQSPQRLIYYISRFHSGVPDRFSGSGSGTDFTLRISRVEADDTGVYYCQQSKTLPYTFGAGTKLEIK , kon observed: 8080

Next:
// SSM-19 (LC SSMwtLCR53S, HC SSMwtHCD54T, L63I) (antibody, V domains shown) VH: EVQLVESGGDLARPGGSLKLSCVVSGFSLIGYDINWVRQAPGKGLQWVTMIWGTGTTDYNSAIKSRFTVSRDNAMNTVYLQMNSLRVEDTAVYYCARGGYYYGTSYYFDYWGQGTLVTVSS VL: DIVMTQTPLSLSVSPGETASISCRASQDISNHLNWFRQKPGQSPQRLIYYISSFHSGVPDRFSGSGSGTDFTLRISRVEADDTGVYYCQQSKTLPYTFGAGTKLEIK : kon value = 43800

So for SSM-8 (LC E3M, HC SSMwtHCD54T, L63I) (antibody, V domains shown) VH: EVQLVESGGDLARPGGSLKLSCVVSGFSLIGYDINWVRQAPGKGLQWVTMIWGTGTTDYNSAIKSRFTVSRDNAMNTVYLQMNSLRVEDTAVYYCARGGYYYGTSYYFDYWGQGTLVTVSS VL: DIVMTQTPLSLSVSPGETASISCRASQDISNHLNWFRQKPGQSPQRLIYYISRFHSGVPDRFSGSGSGTDFTLRISRVEADDTGVYYCQQSKTLPYTFGAGTKLEIK , the logged kon turned out to be 4130
